IC50 by entry:
Test system: A2780
Experiment: Cytotoxicity against human A2780 cells assessed as growth inhibition after 72 hrs by MTT assay
Type: cell-based
Settings: A2780, 72 h
Return type: number; implicit unit µM.

Illustrative cases are given below, each with its answer.
COc1cc(NC(C)CCCNC(=O)NC(C(=O)NC(c2ccccc2)c2ccc(Cl)cc2)c2ccc(Cl)cc2)c2ncccc2c1 (stereo not drawn)	14
COc1cc(NC(C)CCCNC(=O)NC(CC(C)C)C(=O)NC(c2ccccc2)c2ccccc2)c2ncccc2c1 (stereo not drawn)	36

Using the record for COc1ccc(C(=NNC(=O)NNC(=O)NCCCC(C)Nc2cc(OC)cc3cccnc23)c2ccc(OC)cc2)cc1 (stereo not drawn) , report its IC50.
0.06

Now the same for COc1cc(NC(C)CCCN)c2ncccc2c1 (stereo not drawn) [PRIMAQUINE PHOSPHATE]
5

Now the same for COc1cc(NC(C)CCCNC(=O)NNC(=O)NCCNC(c2ccccc2)(c2ccccc2)c2ccccc2)c2ncccc2c1 (stereo not drawn)
1

Now the same for COc1ccc(C(=NNC(=O)NCCCC(C)Nc2cc(OC)cc3cccnc23)c2ccc(OC)cc2)cc1 (stereo not drawn)
1

----------
Tested on: Plasmodium falciparum
Experiment: Antiplasmodial activity against erythrocytic stage of Plasmodium falciparum NF54 assessed as reduction in [3H]hypoxanthine incorporation after 48 hrs by liquid scintillation counting method
Format: functional, organism-based
IC50 by entry:
Return type: number; implicit unit µM.

Illustrative cases are given below, each with its answer.
COc1cc(NC(C)CCCNC(=O)NNC(=O)NC(c2ccccc2)c2ccccc2)c2ncccc2c1 (stereo not drawn)	10.3
COc1cc(NC(C)CCCNC(=O)NCCCO)c2ncccc2c1 (stereo not drawn)	52.4
COc1cc(NC(C)CCCNC(=O)NNC(=O)NCCCC(C)Nc2cc(OC)cc3cccnc23)c2ncccc2c1 (stereo not drawn)	3.7
COc1cc(NC(C)CCCNC(=O)NNC(=O)NCCc2ccccc2)c2ncccc2c1 (stereo not drawn)	27.1
COc1ccc(/C(=N/NC(=O)NNC(=O)NCCCC(C)Nc2cc(OC)cc3cccnc23)c2ccccc2)cc1 (stereo not drawn)	5.6

Using the record for COc1cc(NC(C)CCCNC(=O)/C=C/c2cccc(C(F)(F)F)c2)c2ncccc2c1 (stereo not drawn) , report its IC50.
15.6

Now the same for COc1ccc(/C(=N/NC(=O)NCCCC(C)Nc2cc(OC)cc3cccnc23)c2ccccc2)cc1 (stereo not drawn)
4.1

Now the same for COc1cc(NC(C)CCCNC(=O)NNC(=O)/C(C)=C/c2ccccc2)c2ncccc2c1 (stereo not drawn)
22.9

Now the same for COc1cc(NC(C)CCCNC(=O)NC(c2ccccc2)c2ccc(Cl)cc2)c2ncccc2c1 (stereo not drawn)
4.3

----------
Test system: Plasmodium falciparum
Assay: Antiplasmodial activity against erythrocytic stage of Plasmodium falciparum NF54 assessed as reduction in [3H]hypoxanthine incorporation after 48 hrs by liquid scintillation counting method
Format: functional, organism-based
outcome.measure: log10(IC50) (log10 of the value in µM)
Recall that a logarithmic scale is used here: each number is log10 of IC50 in µM.

COc1cc(NC(C)CCCNC(=O)NC(C(=O)NC(c2ccccc2)c2ccc(Cl)cc2)c2ccccc2)c2ncccc2c1 (configuration not stated)	0.48
COc1cc(NC(C)CCCNC(=O)NNC(=O)Nc2cccc(C(F)(F)F)c2)c2ncccc2c1 (configuration not stated)	1.07
COc1cc(NC(C)CCCNC(=O)NNC(=O)Nc2cccc(Cl)c2)c2ncccc2c1 (configuration not stated)	1.17

Using the record for COc1cc(NC(C)CCCNC(=O)NNC(=O)/C=C/c2ccccc2)c2ncccc2c1 (configuration not stated) , report its log10(IC50).
1.24

Now the same for COc1cc(NC(C)CCCNC(=O)/C=C/c2ccc3c(c2)OCO3)c2ncccc2c1 (configuration not stated)
1.34

Now the same for COc1cc(NC(C)CCCNC(=O)NNC(=O)Nc2ccc(Cl)cc2)c2ncccc2c1 (configuration not stated)
1.25

----------
Experiment: Selectivity index, ratio of IC50 for rat L6 cells to IC50 for erythrocytic stage of Plasmodium falciparum NF54
Assay type: toxicity
Conditions: read-out: Ratio IC50
selectivity ratio by entry:

Illustrative cases are given below, each with its answer.
COc1cc(NC(C)CCCNC(=O)NC(CC(C)C)C(=O)NC(c2ccccc2)c2ccccc2)c2ncccc2c1 (stereo not drawn)	> 50
COc1cc(NC(C)CCCNC(=O)NC(C(=O)NC(c2ccccc2)c2ccccc2)c2ccc(Cl)cc2)c2ncccc2c1 (stereo not drawn)	> 114
COc1cc(NC(C)CCCNC(=O)NNC(=O)/C=C/c2ccccc2F)c2ncccc2c1 (stereo not drawn)	< 1.2

Using the record for COc1cc(NC(C)CCCNC(=O)NC(C(=O)Nc2ccc(Br)cc2)c2ccc(Cl)cc2)c2ncccc2c1 (stereo not drawn) , report its selectivity ratio.
16.9

Now the same for COc1ccc(C(=NNC(=O)NNC(=O)NCCCC(C)Nc2cc(OC)cc3cccnc23)c2ccc(OC)cc2)cc1 (stereo not drawn)
61.9

Now the same for COc1cc(NC(C)CCCNC(=O)NNC(=O)/C=C/c2cccc(C(F)(F)F)c2)c2ncccc2c1 (stereo not drawn)
< 0.5

Now the same for COc1cc(NC(C)CCCNC(=O)NC(C(=O)NC(c2ccccc2)c2ccc(Cl)cc2)c2ccc(Cl)cc2)c2ncccc2c1 (stereo not drawn)
> 83.3

Now the same for COc1cc(NC(C)CCCNC(=O)NC(C(=O)N(C)C(c2ccccc2)c2ccccc2)c2ccccc2)c2ncccc2c1 (stereo not drawn)
> 21.5

----------
viability at 72 h, 10 µM by entry:
Assay: Cytotoxicity against human MCF7 cells assessed as cell growth at 10 uM after 72 hrs by MTT assay relative to control
Assay type: cell-based
Conditions: read-out: Activity
Return type: number; implicit unit %.

COc1cc(NC(C)CCCN)c2ncccc2c1 (stereo not drawn) [PRIMAQUINE PHOSPHATE]	25

Using the record for COc1cc(NC(C)CCCNC(=O)NC(C(=O)NC(c2ccccc2)c2ccccc2)c2ccc(Cl)cc2)c2ncccc2c1 (stereo not drawn) , report its viability at 72 h, 10 µM.
80

Now the same for COc1cc(NC(C)CCCNC(=O)NC(C(=O)NC(c2ccccc2)c2ccc(Cl)cc2)c2ccc(Cl)cc2)c2ncccc2c1 (stereo not drawn)
93

----------
Assay: Selectivity index, ratio of IC50 for rat L6 cells to IC50 for erythrocytic stage of Plasmodium falciparum NF54
Assay type: toxicity
Details: read-out: Ratio IC50
Please note: yes (1) applies when selectivity ratio is 1 or greater, and no (0) applies otherwise.

Example cases with answers are listed next.
COc1cc(NC(C)CCCNC(=O)/C=C/c2ccc3c(c2)OCO3)c2ncccc2c1 (centres undefined)	yes (1)
COc1cc(NC(C)CCCNC(=O)NNC(=O)Nc2ccc(C(F)(F)F)cc2)c2ncccc2c1 (centres undefined)	yes (1)

API: above_or_equal(metric=selectivity ratio, cutoff=1) for item COc1cc(NC(C)CCCNC(=O)NNC(=O)N(CCO)CCO)c2ncccc2c1 (centres undefined)
yes (1)

Now the same for COc1cc(NC(C)CCCNC(=O)NNC(=O)NC(c2ccccc2)c2ccc(Cl)cc2)c2ncccc2c1 (centres undefined)
yes (1)

Now the same for COc1cc(NC(C)CCCNC(=O)NNC(=O)Nc2cccc(Cl)c2)c2ncccc2c1 (centres undefined)
yes (1)

Now the same for COc1cc(NC(C)CCCNC(=O)NNC(=O)NCCCC(C)Nc2cc(OC)cc3cccnc23)c2ncccc2c1 (centres undefined)
yes (1)

Now the same for COc1ccc(/C=C/C(=O)NNC(=O)NCCCC(C)Nc2cc(OC)cc3cccnc23)cc1 (centres undefined)
no (0)

Now the same for COc1cc(NC(C)CCCNC(=O)/C=C/c2ccccc2F)c2ncccc2c1 (centres undefined)
no (0)

Now the same for COc1cc(NC(C)CCCNC(=O)/C=C/c2cc(OC)c(OC)c(OC)c2)c2ncccc2c1 (centres undefined)
yes (1)

----------
Tested on: L6
Assay: Cytotoxicity against rat L6 cells assessed as reduction in cell viability after 70 hrs by Alamar blue assay
Type: cell-based
Settings: L6, 70 h
pIC50 by entry:
Note on units: pIC50 is unitless, being -log10 of a concentration expressed in mol/L.

Using the record for COc1cc(NC(C)CCCNC(=O)NNC(=O)/C=C/c2ccc3c(c2)OCO3)c2ncccc2c1 (stereo unspecified) , report its pIC50.
4.81

Now the same for COc1cc(NC(C)CCCNC(=O)NNC(=O)/C=C/c2ccc(Cl)cc2)c2ncccc2c1 (stereo unspecified)
5.14

----------
System: MCF7
Test: Cytotoxicity against human MCF7 cells assessed as growth inhibition at 10 uM cotreated with G6PD inhibitor 6-AN after 72 hrs by MTT assay
Format: cell-based
Conditions: mcf7, 72 h
outcome.measure: growth inhibition (GI)

Illustrative cases are given below, each with its answer.
COc1cc(NC(C)CCCNC(=O)NC(CC(C)C)C(=O)NC(c2ccccc2)c2ccccc2)c2ncccc2c1 (stereo not given)	Non-Toxic
COc1cc(NC(C)CCCNC(=O)NC(C(=O)NC(c2ccccc2)c2ccc(Cl)cc2)c2ccccc2)c2ncccc2c1 (stereo not given)	Non-Toxic
COc1ccc(C(=NNC(=O)NNC(=O)NCCCC(C)Nc2cc(OC)cc3cccnc23)c2ccc(OC)cc2)cc1 (stereo not given)	Toxic
COc1ccc(C(=NNC(=O)NCCCC(C)Nc2cc(OC)cc3cccnc23)c2ccc(OC)cc2)cc1 (stereo not given)	Toxic

Please look at the following compound next.
Using the record for COc1cc(NC(C)CCCNC(=O)NNC(=O)NCCNC(c2ccccc2)(c2ccccc2)c2ccccc2)c2ncccc2c1 (stereo not given) , report its growth inhibition (GI).
Toxic
